System: Serratia marcescens No. 1
Assay: MIC, minimum inhibitory concentration (nutrient agar, 37° C., 20 hours)
Type: cell-based
Details: Serratia marcescens No. 1; 37° C., 20 hours; read-out: MIC (minimum inhibitory concentration)
Provide the reported MIC of each item.
Number in µg/mL, nothing else.

The recorded MIC for entry COC1(NC(=O)CSCCC(N)C(=O)O)C(=O)N2C(C(=O)[O-])=C(C[n+]3ccc(C(N)=O)cc3)CSC21 (stereo not shown) [Ex. 12] equals 12.5

The recorded MIC for entry COC1(NC(=O)CSCCNC(N)=O)C(=O)N2C(C(=O)O)=C(CSc3nnnn3C)CSC21 (stereo not shown) [Ex. 2] equals 3.13

The recorded MIC for entry COC1(NC(=O)CSCCC(N)C(=O)O)C(=O)N2C(C(=O)O)=C(CSc3nnnn3C)CSC21 (stereo not shown) [Ex. 11] equals 0.78

The recorded MIC for entry COC1(NC(=O)CSCCN)C(=O)N2C(C(=O)O)=C(CSc3nnnn3C)CSC21 (stereo not shown) [Ex. 1] equals 3.13

Value source: patent US4357331A
